# Experimental Protocol: absolute recovery over mixed-bed multilayer solid-phase extraction; higher = better recovery
# Reported Conditions: wastewater effluent; enrichment method: SPE
Measured Endpoint: absolute recovery (%)
Numbers only, in %.

Hey, can you go through the list below and give me absolute recovery for every item?
1. CCS(=O)(=O)c1nc2ccccn2c1S(=O)(=O)[N-]C(=O)Nc1nc(OC)cc(OC)n1
2. CN1C(=O)CCC1c1cccnc1 (configuration not stated)
3. CC12CC3CC(C)(C1)CC([NH3+])(C3)C2 [Memantine]
4. CCC1OC(=O)C(C)C(OC2CC(C)(OC)C(O)C(C)O2)C(C)C(OC2OC(C)CC([NH2+]C)C2O)C(C)(O)CC(C)C[NH+](C)C(C)C(O)C1(C)O (configuration not stated)
5. CC(C)N(C(=O)COc1nnc(C(F)(F)F)s1)c1ccc(F)cc1
6. NC(=O)N=C1SCCN1Cc1ccc(Cl)nc1 [Thiacloprid-amide]
7. CNC(=O)Nc1ccc(C(C)C)cc1

# output
1: 94.6; 2: 112; 3: 89.2; 4: 98.7; 5: 97.5; 6: 104; 7: 94.1

Hello, I would appreciate it if you could give absolute recovery for each entry below.
1. O=C1CCC2(O)C3Cc4ccc(O)c5c4C2(CC[NH+]3CC2CC2)C1O5 (configuration not stated) [Naltrexon]
2. CCC(C(N)=O)N1CCCC1=O (configuration not stated)
3. CCC1(c2ccccc2)C(=O)NCNC1=O
4. N#Cc1cc(Br)c([O-])c(Br)c1

# output
[95.7, 56.3, 88.6, 86.9]

# input What does the data say about its absolute recovery? Entry: `CCCCCCCCCCCC[N+](C)(C)C`
# output 69.5
